I'd appreciate it if you could supply GI50 values for the items below.
- Tested on: OVCAR-8
- method-summary: NCI tumour cell line growth inhibition, 48 h
Active and inactive are the calls of the source. Rule as the data show it: active = GI50 up to about 1.1 µM and inactive = higher.

For orientation, consider the following solved cases.
Incoming: Give a short answer stating reported GI50 for CC1=C(C(=O)NCc2ccccc2)C(c2ccc(Cl)c(Cl)c2)C(C(=O)NCc2ccccc2)=C(C)N1 .
Outgoing: > 100 µM (inactive)

Incoming: Give a short answer stating reported GI50 for COc1ccc(-n2c(-c3ccccc3)cc(-c3cccs3)c2-c2cccs2)cc1 .
Outgoing: > 100 µM (inactive)

Incoming: Give a short answer stating reported GI50 for O=C1C2C(C(=O)N1c1ccccc1)C1([N+](=O)[O-])C=C3c4ccccc4N(C(=O)c4ccccc4)C32C2C(=O)N(c3ccccc3)C(=O)C21 (configuration not stated) .
Outgoing: > 100 µM (inactive)

Incoming: Give a short answer stating reported GI50 for COc1cccc(C(=O)C#Cc2cnc(OC)nc2OC)c1 .
Outgoing: 1.7 µM (inactive)

Incoming: Give a short answer stating reported GI50 for CC12CCC([C@H](C(O)C3CCCCC3)C1=O)C2(C)C (some centres not stated) .
Outgoing: > 100 µM (inactive)

For the 2 molecules below, give their GI50 values.
1. O=C1CCC2(c3ccc(Cl)cc3)Nc3ncncc3N12 (configuration not stated)
2. FC(F)(F)c1ccc2c(c1)nc(Cc1ccc(Cl)c(Cl)c1)n2CC1CCCN2CCCCC12 (configuration not stated)

Outgoing:
> 10 µM (inactive)
35.8 µM (inactive)

----------
I'd appreciate it if you could supply GI50 values for the items below.
- Test system: 786-0
- method-summary: NCI tumour cell line growth inhibition, 48 h
Active and inactive are the calls of the source. Cut-off read from the data, not from the text of the source: active = GI50 up to about 1.1 µM and inactive = higher.

For the 5 compounds below, give their GI50 values.
1. N#CC1=C(Cl)NC(Cl)=C(C#N)C1c1ccc(Cl)cc1
2. COc1ccc(/C=C2/SC(c3ccccc3)N(NC(=O)CCCCCCCCC(=O)NN3C(=O)/C(=C\c4ccc(OC)c(OC)c4)SC3c3ccccc3)C2=O)cc1OC (configuration not stated)
3. COc1cc2c(c(OC)c1OC)-c1ccc(OC)c(=O)cc1C(NC(=O)COc1ccccc1)CC2 (configuration not stated)
4. Cc1c(NC(=S)N/N=C\C(=N/NC(=S)Nc2c(C)n(C)n(-c3ccccc3)c2=O)c2ccccc2)c(=O)n(-c2ccccc2)n1C
5. CC(=O)C1(O)Cc2c(O)c3c(c(O)c2C(OC2CC(N)C(O)C(C)O2)C1)C(=O)c1ccccc1C3=O (configuration not stated)

Outgoing:
1: 15.8 µM (inactive); 2: 19.6 µM (inactive); 3: < 0.01 µM (active); 4: > 100 µM (inactive); 5: 0.0152 µM (active)

----------
I'd appreciate it if you could supply GI50 values for the items below.
- System: Hs-578T
- method-summary: NCI tumour cell line growth inhibition, 48 h
Activity calls are given as the source filed them. Rule as the data show it: active = GI50 up to about 1.1 µM and inactive = higher.

For orientation, consider the following solved cases.
Incoming: Give a short answer stating reported GI50 for N/C(=N\c1c([N+](=O)[O-])cnc2ccccc12)N1CCOCC1 .
Outgoing: > 100 µM (inactive)

Incoming: Give a short answer stating reported GI50 for Cc1ccc(S(=O)(=O)NC(=O)C2=C(c3ccccc3)[N-]N(C)c3nc4cccc[n+]4nc32)cc1 .
Outgoing: > 100 µM (inactive)

Incoming: Give a short answer stating reported GI50 for O=C1O/C(=C\c2ccc(O)cc2)C(c2ccc(O)c(Cl)c2)=C1Br .
Outgoing: 11.6 µM (inactive)

Incoming: Give a short answer stating reported GI50 for Cc1cccc2nc3c(=O)[nH]c(=O)nc-3n(C)c12 .
Outgoing: 86.9 µM (inactive)

Incoming: Give a short answer stating reported GI50 for NNC(=S)NCCNC(=S)NN .
Outgoing: > 100 µM (inactive)

Incoming: Give a short answer stating reported GI50 for CC(C)(C)c1ccc(O)c(CN(Cc2cc(C(C)(C)C)ccc2O)C2CCCCC2)c1 .
Outgoing: 22.6 µM (inactive)

For the 4 compounds below, give their GI50 values.
1. CCn1c2ccccc2c2cc(/N=N\c3ccc(C#N)cc3)ccc21
2. CCOC(=O)C(=[N+]=[N-])C(=O)C[N+]12CCN(CC1)CC2
3. [N-]=[N+]=NC1C(O)C(CO)OC1n1ccc(=O)[nH]c1=O (stereo not given)
4. C/C(=N\NC(=O)N/N=C(\C)c1ccccn1)c1ccccn1

Outgoing:
1: 42.1 µM (inactive); 2: > 100 µM (inactive); 3: > 875 µM (inactive); 4: > 38.6 µM (inactive)
